Tested on: SK-MEL-5 melanoma
protocolDetails: NCI tumour cell line growth inhibition, 48 h; in the data active = GI50 below about 0.43 µM; inactive = the rest
Answer with one of the outcomes given here: label 1 (active), label 0 (inactive)

### Prompt So what was the verdict on Cn1c(=O)cc2c3c(c(NCCCO)ccc31)C(=O)c1ccccc1-2 in this test?
### Response label 0

### Prompt So what was the verdict on CC(=O)/C=C/C1=C(c2cc3ccccc3s2)c2ccccc2CC1 in this test?
### Response label 0

### Prompt So what was the verdict on Nc1cc(-c2ccccc2)ccc1O in this test?
### Response label 0

### Prompt So what was the verdict on CCOC(=O)CC1(O)C=CC(=O)C=C1 in this test?
### Response label 0

### Prompt So what was the verdict on CC1(C)N=C(N)N=C(N)N1c1ccc(F)c(C(F)(F)F)c1 in this test?
### Response label 0

### Prompt So what was the verdict on CN1CCN(c2ccc3c4c(cccc24)C(=O)N(CCN2CCN(CCCN4CCN(CCN5C(=O)c6cccc7c(N8CCN(C)CC8)ccc(c67)C5=O)CC4)CC2)C3=O)CC1 in this test?
### Response label 0

### Prompt So what was the verdict on CC(C)(C)c1ccc([I+]c2ccc(C(C)(C)C)cc2)cc1 in this test?
### Response label 1

### Prompt So what was the verdict on CN1C(=O)CNC(=O)[C@H](NC(=O)c2nc3ccccc3cc2O)CSSC[C@H]1C(=O)NCCc1nc2ccccc2cc1O in this test?
### Response label 0

### Prompt So what was the verdict on N#Cc1ccccc1C#C/C=C\C#Cc1ccc(OCCCNC(=O)c2cc3ccccc3[nH]2)cc1 in this test?
### Response label 0

### Prompt So what was the verdict on O=C(Nc1cc(C(F)(F)F)ccc1F)Nc1n[nH]c2ccccc12 in this test?
### Response label 0

### Prompt So what was the verdict on CC(ONC(=O)c1cc(C(F)(F)F)cc(C(F)(F)F)c1)C(=O)Nc1ccc(Cl)cc1 (stereo not drawn) in this test?
### Response label 0

### Prompt So what was the verdict on CCN(CC)CCOc1ccc(/C=C2\CC3C4CCC5=CC(=O)CC[C@]5(C)C4CC[C@]3(C)C2=O)cc1OC (stereo partly drawn) in this test?
### Response label 0

### Prompt So what was the verdict on ClCCN(CCCl)c1ccc(-n2cnc3c(Cl)ncnc32)cc1 in this test?
### Response label 0

Values were extracted from PubChem BioAssay (NCI).
